# Tested on: Kochia (Kochia scoparia)
# ASSAY_TEXT: Test A postemergence
# Assay type: in vivo
# ASSAY_CONTEXT: Bassia scoparia, post-emergence, 240 h, 125 g ai/ha, postemergence, visual injury vs untreated controls after approx. 10 d; 0 = no effect, 100 = complete control; read-out: Kochia plant response rating (0 to 100 scale)
pest or weed control at 125 g/ha for assorted molecules
Answer with a number only, understood to be in %.

Below, 4 molecules whose answers are already recorded.
CN1C[C@H](c2ccc(Cl)c(F)c2)[C@@H](C(=O)Nc2ccc(F)c(F)c2F)C1=O [Compound 1266] : 70
CN1CC[C@H](c2ccc(C(F)(F)F)cc2)[C@@H](C(=O)Nc2cccc(Cl)c2F)C1=O [Compound 1228] : 60
Cn1ccc2ccc([C@H]3CNC(=O)[C@@H]3C(=O)Nc3cccc(F)c3F)cc21 [Compound 1263] : 0
CON1CC[C@H](c2cccc(C(F)(F)F)c2)[C@@H](C(=O)Nc2cccc(F)c2F)C1=O [Compound 1169] : 20

So what does the record say about pest or weed control at 125 g/ha for Cc1nc([C@H]2CNC(=O)[C@@H]2C(=O)Nc2cccc(F)c2F)cs1 [Compound 1180] ?
0

Return reported pest or weed control at 125 g/ha; argument: Cc1cc([C@H]2CN(C)C(=O)[C@@H]2C(=O)Nc2cccc(F)c2F)on1 [Compound 1196]
0

Record request: pest or weed control at 125 g/ha value, item CN1C[C@H](c2ccc(C#N)c(F)c2)[C@@H](C(=O)Nc2ccccc2F)C1=O [Compound 1190]
0

Look up pest or weed control at 125 g/ha for this molecule: CN1C[C@H](c2ccc(C(F)(F)F)c(O)c2)[C@@H](C(=O)Nc2cccc(F)c2F)C1=O [Compound 1173]
50

pest or weed control at 125 g/ha for CN1CC[C@H](c2ccc(C(F)(F)F)cc2)[C@@H](C(=O)Nc2ccc(F)c(F)c2F)C1=O [Compound 1226] ?
60

----------
Catalogue of pest or weed control at 125 g/ha values
# System: ryegrass, Italian (Italian ryegrass, Lolium multiflorum)
# ASSAY_TEXT: Test A preemergence
# Type: in vivo
# ASSAY_CONTEXT: Lolium multiflorum, pre-emergence, 240 h, 125 g ai/ha, preemergence; 0 to 100 scale where 0 is no effect and 100 is complete control; approx. 10 d; read-out: Ryegrass, Italian plant response rating
Expressed in %, but write only the number.

CN1CC[C@H](c2ccc3c(c2)OC(F)(F)O3)[C@@H](C(=O)Nc2cccc(Cl)c2F)C1=O [Compound 1174] : 40
CON1CC[C@H](c2cccc(C(F)(F)F)c2)[C@@H](C(=O)Nc2cccc(F)c2F)C1=O [Compound 1169] : 0
CSc1ccccc1NC(=O)[C@H]1C(=O)NC[C@@H]1c1cc(F)c(F)c(F)c1 [Compound 1124] : 0

Moving on to the next molecule.
Suppose we examine the molecule CN1C[C@H](c2ccc(C(F)(F)F)c(O)c2)[C@@H](C(=O)Nc2cccc(F)c2F)C1=O [Compound 1173] ; what pest or weed control at 125 g/ha value has been reported?
30

----------
# Tested on: wheat (Triticum aestivum)
# ASSAY_TEXT: Test A postemergence
# Format: in vivo
# ASSAY_CONTEXT: Postemergence, 500 g ai/ha; 0 to 100 scale where 0 is no effect and 100 is complete control
PARAMETER_MEASURED: Plant response rating, Wheat
The answer should be written as a number, with no unit following it.

Worked cases, answers included:
COc1c(F)ccc(NC(=O)C2C(=O)NCC2c2cccc(OC(F)(F)C(F)F)c2)c1F (racemic) : 60
O=C1NCC(c2cc(Br)cs2)C1C(=O)Nc1cccc(F)c1F (racemic) : 0
O=C(Nc1ccccc1F)C1C(=O)N(c2ccc([N+](=O)[O-])cc2)CC1c1cccc(C(F)(F)F)c1 (centres unmarked) : 0
COc1ccc(N2CC(c3cccc(C(F)(F)F)c3)C(C(=O)Nc3ccccc3F)C2=O)cc1 (centres unmarked) : 0
O=C1NCC(c2ccsc2Cl)C1C(=O)Nc1cccc(F)c1F (centres unmarked) : 0
C=CCN1CC(c2cccc(C(F)(F)F)c2)C(C(=O)Nc2ccccc2F)C1=O (centres unmarked) : 30
CN1CC(c2cccc(OC(F)F)c2)C(C(=O)Nc2ccccc2S(C)(=O)=O)C1=O (centres unmarked) : 70

# context switch: different compound, same Plant response rating, Wheat
Given O=C1NCC(c2ccc(F)cc2F)C1C(=O)Nc1ccc(F)cc1F (racemic) , state its recorded Plant response rating, Wheat.
0

----------
Consider the following molecules and their measured Plant response rating, Foxtail, Giant readings.
# Tested on: giant foxtail (Setaria faberii)
# ASSAY_TEXT: Test A postemergence
# Type: in vivo
# ASSAY_CONTEXT: Postemergence, 500 g ai/ha; 0 to 100 scale where 0 is no effect and 100 is complete control
Number only, no unit.

Past entries and their recorded results:
Cc1ccc(C2CN(C)C(=O)C2C(=O)Nc2ccccc2S(C)(=O)=O)c(F)c1 (stereo not shown) : 90
CCc1ccc(C2CNC(=O)C2C(=O)Nc2ccccc2S(C)(=O)=O)cc1 (stereo not shown) : 0
Cc1ccc(C2CN(C)C(=O)C2C(=O)Nc2ccccc2F)c(F)c1 (stereo not shown) : 90

Now take the following molecule into account.
# Plant response rating, Foxtail, Giant lookup, item CN1CC(c2ccc(OC(F)F)cc2)C(C(=O)Nc2cccc(F)c2F)C1=O (stereo not shown)
90

----------
# Tested on: barnyardgrass (Echinochloa crus-galli)
# ASSAY_TEXT: Test A preemergence
# Format: in vivo
# ASSAY_CONTEXT: Echinochloa crus-galli, pre-emergence, 240 h, 500 g ai/ha, preemergence; visual injury rating about 10 d after treatment, 0 to 100 scale (0 no effect, 100 complete control); read-out: Barnyardgrass plant response rating
PARAMETER_MEASURED: pest or weed control at 500 g/ha (%)
The reply should be a number in %, with the unit left off.

Below, each entry is followed by its recorded pest or weed control at 500 g/ha result.
CN1C[C@H](c2csc(C(F)(F)F)c2)[C@@H](C(=O)Nc2cccc(F)c2F)C1=O [Compound 959] : 100
CN1C[C@H](c2cc(F)cc(F)c2)[C@@H](C(=O)Nc2cc(O)ccc2F)C1=O [Compound 992] : 0
Cc1ccc([C@H]2CNC(=S)[C@@H]2C(=O)Nc2ccccc2F)cc1 (racemic) [Compound 945] : 90

Hello, I am looking for reported pest or weed control at 500 g/ha with barnyardgrass (Echinochloa crus-galli) for Cc1cc([C@H]2CNC(=O)[C@@H]2C(=O)Nc2ccccc2F)ccc1C(F)(F)F [Compound 1042] . Could you help?
90

Record lookup: for barnyardgrass (Echinochloa crus-galli), what pest or weed control at 500 g/ha belongs to Cc1cc([C@H]2CNC(=O)[C@@H]2C(=O)Nc2ccccc2Cl)ccc1C(F)(F)F [Compound 1044] ?
90

# get_value(readout= pest or weed control at 500 g/ha, system= barnyardgrass (Echinochloa crus-galli)) for CN1C[C@H](c2cc(F)cc(F)c2)[C@@H](C(=O)Nc2cnccc2Cl)C1=O [Compound 1096]
0

Provide the documented pest or weed control at 500 g/ha with barnyardgrass (Echinochloa crus-galli) as the system for CN1C[C@H](c2cc(F)cc(Cl)c2)[C@@H](C(=O)Nc2ccccc2S(C)(=O)=O)C1=O [Compound 979]
90

Could you share what pest or weed control at 500 g/ha was measured for Cc1ccc([C@H]2CNC(=O)[C@@H]2C(=O)Nc2cccc(F)c2F)cc1C [Compound 1034] , tested on barnyardgrass (Echinochloa crus-galli)?
90

Request: pest or weed control at 500 g/ha, test system barnyardgrass (Echinochloa crus-galli), entry CN1CC[C@H](c2ccc(OC(F)(F)F)cc2)[C@@H](C(=O)Nc2cccc(F)c2F)C1=O [Compound 999]
90

Value wanted: pest or weed control at 500 g/ha (barnyardgrass (Echinochloa crus-galli)) of entry Cc1cc([C@H]2CN(C)C(=O)[C@@H]2C(=O)Nc2ccccc2S(C)(=O)=O)ccc1Br [Compound 1102]
90

Find the measured pest or weed control at 500 g/ha: item CN1C[C@H](c2cc(C(F)F)cs2)[C@@H](C(=O)Nc2ccccc2F)C1=O [Compound 1120] , target or system barnyardgrass (Echinochloa crus-galli).
100

Which measured pest or weed control at 500 g/ha belongs to CC(C)Oc1ccc([C@H]2CN(C)C(=O)[C@@H]2C(=O)Nc2cccc(F)c2F)cc1 [Compound 953] , tested on barnyardgrass (Echinochloa crus-galli)?
90

Please tell me: pest or weed control at 500 g/ha of COc1ccc([C@H]2CN(C)C(=O)[C@@H]2C(=O)Nc2ccccc2SC)cc1C(F)(F)F [Compound 991] , system barnyardgrass (Echinochloa crus-galli)?
90

Please tell me: pest or weed control at 500 g/ha of Cc1ccc([C@H]2CCNC(=O)[C@@H]2C(=O)Nc2cccc(F)c2F)cc1 [Compound 973] , system barnyardgrass (Echinochloa crus-galli)?
90

Lookup: pest or weed control at 500 g/ha / barnyardgrass (Echinochloa crus-galli) / CN1C[C@H](c2cscn2)[C@@H](C(=O)Nc2ccccc2F)C1=O [Compound 1112]
0

// fetch barnyardgrass (Echinochloa crus-galli) pest or weed control at 500 g/ha for O=C1NC[C@H](c2cccc(C(F)(F)F)n2)[C@H]1C(=O)Nc1ccccc1F [Compound 940]
70
